assay: Acute toxicity; design: species or system mice; conditions: mouse, in vivo, po; mice; v.o.; read-out: APPROXIMATE DL₅₀
Parameter Measured: LD50

# input Note LD50 for the compound shown: `O=Cc1c(N2CCN(Cc3ccc4c(c3)OCO4)CC2)[nH]c2ccccc12`
# output > 500 mg/kg

---

test: Acute toxicity; parameters: species or system mice; conditions: mouse, in vivo, ip
Parameter Measured: LD50 (mg/kg)
Write the value in mg/kg as a bare number.

# input Note LD50 for the compound shown: Cc1nccn1CC1CCc2c(c3ccccc3n2C)C1=O (stereo not shown)
# output 7.5
